Test: Inhibition of CTSL/CTSB in 293T/17 cells harboring ACE2 assessed as reduction in SARS-CoV-2 S pseudovirions entry into host cell incubated for 2 days by luciferase method
Assay type: cell-based
Conditions: Severe acute respiratory syndrome-related coronavirus, HEK293T/17, 48 h
measured.parameter: IC50
Record the result as a number with its unit.

Query: IC50; subject: CN1CCN(C(=O)N[C@@H](Cc2ccccc2)C(=O)N[C@H](/C=C/S(=O)(=O)c2ccccc2)CCc2ccccc2)CC1 [K-777]
0.32 nM

Query: IC50; subject: CC(C)(C)N1CCN(C(=O)N[C@@H](Cc2ccccc2)C(=O)N[C@H](/C=C/S(=O)(=O)c2ccccc2)CCc2ccccc2)CC1
0.08 nM
